biological target: UniProt:Q9FUZ2; assay: PDF activity assay coupled to formate dehydrogenase (NADH absorbance at 340 nm)
test-readout: pKd
Schema: pKd number; meaning minus log10 of the concentration expressed in molar units.

Missing value: pKd, UniProt:Q9FUZ2, entry CCCCC[C@H](CC(=O)NO)C(=O)N[C@H](C(=O)N1CCC[C@H]1CO)C(C)C . Fill in?
9.05

====

target: AtPDF variant I42W (Arabidopsis thaliana, UniProt Q9FUZ2, I122W); construct: Expression and purification of mature Arabidopsis thaliana PDF1B and all variants (i.e., AtPDF); test: Isothermal titration calorimetry (ITC)
Sequence (Q9FUZ2 57-273 I122W): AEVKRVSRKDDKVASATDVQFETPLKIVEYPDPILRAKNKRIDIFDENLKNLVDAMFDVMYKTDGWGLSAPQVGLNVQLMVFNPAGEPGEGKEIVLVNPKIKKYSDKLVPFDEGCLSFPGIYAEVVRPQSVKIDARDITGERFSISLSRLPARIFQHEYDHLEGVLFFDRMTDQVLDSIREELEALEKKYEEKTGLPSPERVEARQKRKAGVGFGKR
test-readout: pKd
Give only the number. pKd is defined as minus log10 of concentration in molar units.

I would be grateful if you could share the reported pKd for CCCCC[C@H](CC(=O)NO)C(=O)N[C@H](C(=O)N1CCC[C@H]1CO)C(C)C .
8.43
